Every entry's value here was drawn from patent EP4772535A1.

Give measured pEC50 for each item. Keep answers brief.
# SYSTEM TESTED: T1, ROR1 naturally expressed on human tumor cell lines (A549, Jeko-1, SW620, PA-1) (human, UniProt Q01973 30-937)
# T1 construct: whole, on cells; also called cells expressing ROR1
# T1 sequence (Q01973 30-937): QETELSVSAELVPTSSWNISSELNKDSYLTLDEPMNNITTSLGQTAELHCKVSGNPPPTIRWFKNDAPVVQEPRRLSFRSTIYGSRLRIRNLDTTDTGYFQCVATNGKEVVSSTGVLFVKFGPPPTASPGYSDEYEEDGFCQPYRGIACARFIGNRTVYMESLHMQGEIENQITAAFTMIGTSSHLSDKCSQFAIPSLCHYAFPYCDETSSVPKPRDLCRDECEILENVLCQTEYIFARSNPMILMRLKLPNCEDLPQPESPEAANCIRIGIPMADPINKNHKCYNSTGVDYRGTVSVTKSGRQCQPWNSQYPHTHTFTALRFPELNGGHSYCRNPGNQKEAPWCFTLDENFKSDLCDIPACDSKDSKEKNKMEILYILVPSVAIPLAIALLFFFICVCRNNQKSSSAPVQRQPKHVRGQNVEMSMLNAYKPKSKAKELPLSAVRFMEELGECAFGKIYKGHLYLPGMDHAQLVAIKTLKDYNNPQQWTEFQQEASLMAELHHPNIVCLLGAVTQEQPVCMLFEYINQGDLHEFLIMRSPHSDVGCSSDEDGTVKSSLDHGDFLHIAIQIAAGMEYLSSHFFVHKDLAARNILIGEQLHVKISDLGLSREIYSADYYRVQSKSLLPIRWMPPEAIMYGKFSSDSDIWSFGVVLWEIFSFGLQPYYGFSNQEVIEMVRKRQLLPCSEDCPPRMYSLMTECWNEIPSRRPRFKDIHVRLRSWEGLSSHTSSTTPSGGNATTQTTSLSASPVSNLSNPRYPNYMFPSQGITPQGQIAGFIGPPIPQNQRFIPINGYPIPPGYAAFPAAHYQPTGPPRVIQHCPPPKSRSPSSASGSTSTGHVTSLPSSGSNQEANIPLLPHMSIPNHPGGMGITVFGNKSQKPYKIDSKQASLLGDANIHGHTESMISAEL
# PROCEDURE SUMMARY: FACS on SW620 cells naturally expressing ROR1
Answers are plain numbers, as −log10 of the molar value.

Some binders with recorded pEC50:
BINDER	pEC50
hz137G11D10-2.2 (antibody, human IgG1, kappa, V domains shown, Humanized, human IgG1/kappa) VH: QVQLQESGPGLVKPSQTLSLTCTVSGYSITSDYAWNWIRQHPGKGLEWIGYITYSASTSYNPSLKSRVTISRDTSKNQFFLKLSSVTAADTAVYYCARGAGTYYFDYWGQGTLVTVSS VL: DIQMTQSPSSLSASVGDRVTITCITSTDIDEDMNWYQQKPGKAPKLLIYEDNSLRPGVPSRFSGSGYGTDFTLTISSLQPEDFATYYCLQTNNLPLTFGQGTKVEIKR	11.05
hz137G11D10-3.2 (antibody, human IgG1, kappa, V domains shown, Humanized, human IgG1/kappa) VH: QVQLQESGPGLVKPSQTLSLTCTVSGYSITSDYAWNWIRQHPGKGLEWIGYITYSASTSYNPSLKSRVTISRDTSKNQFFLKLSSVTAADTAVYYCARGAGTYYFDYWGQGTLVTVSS VL: DIQMTQSPSSLSASVGDRVTITCITSTDIDEDMNWYQQKPGKAPKLLISEDNSLRPGVPSRFSSSGYGTDFTLTISSLQPEDFATYYCLQTNNLPLTFGQGTKVEIKR	10.96
hz137G11D10-1.1 (antibody, human IgG1, kappa, V domains shown, Humanized, human IgG1/kappa) VH: QVQLQESGPGLVKPSQTLSLTCTVSGYSITSDYAWNWIRQHPGKGLEWIGYITYSASTSYNPSLKSRVTISRDTSKNQFSLKLSSVTAADTAVYYCARGAGTYYFDYWGQGTLVTVSS VL: ETTLTQSPAFMSATPGDKVNISCITSTDIDEDMNWYQQKPGEAAKLIISEDNSLRPGIPPRFSSSGYGTDFTLTINNIESEDAAYYFCLQTNNLPLTFGQGTKVEIKR	10.89
hz137G11D10-2.1 (antibody, human IgG1, kappa, V domains shown, Humanized, human IgG1/kappa) VH: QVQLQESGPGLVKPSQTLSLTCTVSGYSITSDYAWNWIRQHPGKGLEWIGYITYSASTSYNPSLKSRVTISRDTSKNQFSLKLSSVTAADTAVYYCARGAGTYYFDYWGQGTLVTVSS VL: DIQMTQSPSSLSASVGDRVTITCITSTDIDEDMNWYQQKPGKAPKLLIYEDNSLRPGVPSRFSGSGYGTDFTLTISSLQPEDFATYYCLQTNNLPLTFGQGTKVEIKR	11.05
UC-961 (antibody, V domains shown) VH: QVQLQESGPGLVKPSQTLSLTCTVSGYAFTAYNIHWVRQAPGQGLEWMGSFDPYDGGSSYNQKFKDRLTISKDTSKNQVVLTMTNMDPVDTATYYCARGWYYFDYWGHGTLVTVSS VL: DIVMTQTPLSLPVTPGEPASISCRASKSISKYLAWYQQKPGQAPRLLIYSGSTLQSGIPPRFSGSGYGTDFTLTINNIESEDAAYYFCQQHDESPYTFGEGTKVEIK	10.60

Please give pEC50 for each item listed below.
1. hz137G11D10-1.2 (antibody, human IgG1, kappa, V domains shown, Humanized, human IgG1/kappa) VH: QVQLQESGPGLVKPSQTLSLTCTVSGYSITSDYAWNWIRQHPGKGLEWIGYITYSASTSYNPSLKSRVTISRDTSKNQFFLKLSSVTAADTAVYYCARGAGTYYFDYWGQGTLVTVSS VL: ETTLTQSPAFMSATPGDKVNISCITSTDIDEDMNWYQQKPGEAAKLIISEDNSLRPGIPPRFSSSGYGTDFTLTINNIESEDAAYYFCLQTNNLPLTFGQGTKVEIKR
2. hz137G11D10-3.1 (antibody, human IgG1, kappa, V domains shown, Humanized, human IgG1/kappa) VH: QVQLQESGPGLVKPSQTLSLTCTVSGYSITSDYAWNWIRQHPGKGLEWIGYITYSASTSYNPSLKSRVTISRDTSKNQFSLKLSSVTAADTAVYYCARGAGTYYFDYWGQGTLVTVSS VL: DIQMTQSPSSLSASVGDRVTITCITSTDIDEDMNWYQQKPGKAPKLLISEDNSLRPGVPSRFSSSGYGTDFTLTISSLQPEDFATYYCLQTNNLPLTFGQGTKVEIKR

Result:
10.89
11.05
